Reference for the values: ChEMBL document CHEMBL1201862

// GI50 lookup, one value per entry
Tested on: A549
Assay: NCI tumour cell line growth inhibition, 48 h
Activity calls are given as the source filed them. Rule as the data show it: active = GI50 up to about 1.1 µM and inactive = higher.

COMPOUND	GI50
CC1CC(C(=O)OC2OC(COC3OC(CO)C(OC4OC(C)C(O)C(O)C4O)C(O)C3O)C(O)C(O)C2O)C2CCC3(C)C(=CCC4(C)C3CCC3C(C)(CO)C(O)C(O)CC34C)C2C1C (stereo not drawn)	96.6 µM (inactive)
COc1ccc(NC(=O)CC/C(CC(=O)c2ccco2)=N/NC(=O)C(N)=O)cc1	> 100 µM (inactive)
O=C(Nc1ccc(F)cc1)c1cc2c(cc1Cl)Sc1nccn1S2(=O)=O	> 100 µM (inactive)
CC(C)NC(=O)N(Nc1ccccc1)C(C)(C)C	> 100 µM (inactive)
O=C1[C@H]2ON(c3ccccc3)C(c3ccccc3)[C@H]2C(=O)N1c1ccc(Cc2ccc(N3C(=O)[C@@H]4ON(c5ccccc5)C(c5ccccc5)[C@@H]4C3=O)cc2)cc1 (stereo partly drawn)	> 100 µM (inactive)
NC(CSSCC(N)Cc1ccccc1)Cc1ccccc1 (stereo not drawn)	65.8 µM (inactive)
Cc1ccc(S(=O)(=O)N/N=C2\C(=O)Nc3cc(O)c(C(=O)O)cc32)cc1	> 100 µM (inactive)
O=C1/C(=C\c2ccc(Br)cc2)CCCc2ccccc21	31.6 µM (inactive)

###

Test system: EKVX
Assay: NCI tumour cell line growth inhibition, 48 h
Calls of active or inactive are those of the source. No stated cut-off is given here; in the data, active = GI50 up to about 1.1 µM and inactive = higher.
ATTRIBUTE MEASURED: GI50

COMPOUND	MEASURED TARGET	EXPERIMENTAL VALUE
CCC(C)[C@H]1C(=O)N=C(N)N1C(=O)OCc1ccccc1 (stereo partly specified)	EKVX	> 100 µM (inactive)
CC1NCCc2c1[nH]c1cc(O)ccc21 (stereo unspecified)	EKVX	> 100 µM (inactive)
CN(NC(=O)/C(=C/c1ccc(Cl)cc1)NC(=O)c1ccccc1)c1cn[nH]c(=O)c1Cl	EKVX	68.5 µM (inactive)
CC(=O)C(C(C)=O)=C1CCCC(O)O1 (stereo unspecified)	EKVX	> 100 µM (inactive)
S=C(Nc1ccc2cn[nH]c2c1)Nc1ccc2cn[nH]c2c1	EKVX	54 µM (inactive)
O=c1c2c3c(sc2nc2n1N=C(c1ccc([N+](=O)[O-])cc1)CS2)CCCC3	EKVX	> 100 µM (inactive)

###

This section presents molecules with their documented GI50 values.
Test system: RXF 393
Assay: NCI tumour cell line growth inhibition, 48 h
Active and inactive are the calls of the source. No stated cut-off is given here; in the data, active = GI50 up to about 1.1 µM and inactive = higher.
ATTRIBUTE MEASURED: GI50

MOLECULE	ATTRIBUTE MEASURED	EXPERIMENTAL VALUE
CC(=O)NC1=C(C)C(=O)c2c(nc3n2CC[C@H]3OC(C)=O)C1=O	GI50	1.73 µM (inactive)
CCOC(=O)C(=C=C=C(c1ccccc1)c1ccccc1)C(=O)OCC	GI50	10.7 µM (inactive)
O=c1cc(-c2ccccc2)nc2[nH]ccn12	GI50	> 10 µM (inactive)
Cc1c(N(C)C)ccc2c(=O)c3cccc(CC(=O)O)c3oc12	GI50	> 100 µM (inactive)
O=S(OC12CC3CC(CC(C3)C1)C2)c1cc(Cl)cc(Cl)c1OCc1ccccc1 (stereo unspecified)	GI50	> 100 µM (inactive)
CC(=O)OCC12C(=O)C[C@@H](C)C3(CC(c4ccoc4)OC3=O)C1CCC(OC(C)=O)C21CO1 (stereo partly specified)	GI50	87.3 µM (inactive)
CC(NNC(=O)c1ccncc1)c1ccccc1 (stereo unspecified)	GI50	> 100 µM (inactive)
FC(F)(F)c1ccc2c(c1)N(CCCNCCN1CCOCC1)c1ccccc1S2	GI50	2.62 µM (inactive)
O=C1/C(=N\O)c2ccccc2S1(=O)=O	GI50	> 100 µM (inactive)
Cc1nc(Nc2ccc(F)cc2)c2sc(=S)n(-c3ccc(F)cc3)c2n1	GI50	12.6 µM (inactive)
O=C(Nc1ccc(F)cc1)c1cc2c(cc1Cl)Sc1nccn1S2(=O)=O	GI50	31.7 µM (inactive)
